Collected EC50 values appear next to each entry.
# TARGET UNDER TEST: EBOV GPddmuc (Ebola virus (EBOV), UniProt Q05320 33-650)
# ASSAY INFO: ELISA
The answer is to be given in nM; state only the numeric part.

Examples with their reported EC50 follow.
• FVM15 (antibody, V domains shown) VH: QVQLVQSGAEVKRPGESLRISCKTSGYTFTDYWIAWVRQMPGKGLEWMGSIYPGDSETKYNPSFQGHVTISADKSVTTTYLKWSRLKASDTATYYCVKGSETWGQGVLVTVSS VL: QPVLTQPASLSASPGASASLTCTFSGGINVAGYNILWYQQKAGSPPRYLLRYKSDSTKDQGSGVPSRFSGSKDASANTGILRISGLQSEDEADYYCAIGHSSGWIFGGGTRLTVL = 0.042
• FVM19 (antibody, V domains shown) VH: QVQLVQSGAEVKRPGESLTISCKTSGYSFTDSWVAWVRQMPGKGLEWLGSIYPGDSDTKYNPSFQGHVTISADKSVTTTYLKWSSLKASDTATYYCVKGSETWGQGVLVTVSS VL: KPMLTQPASLSASPGASASLTCTFSGGINVAGYHIFWYQQKPGSPPRYLLRYKSDSDKGQGSGVPSRFSGSKDASANTGILRISGLQSEDEADYYCAIGHSSGLLFGGGTRLTVL = 0.12

Item: FVM35 (antibody, V domains shown) VH: EVQLVQSGAEVKRPGESLTISCKTSGYSFTSYWITWVRQMPGKGLEWLGSIYPGDSETKYNPSFQGHVTISADKSVTTTYLKWSSLKASDTATYYCVKGSETWGQGVLVTVSS VL: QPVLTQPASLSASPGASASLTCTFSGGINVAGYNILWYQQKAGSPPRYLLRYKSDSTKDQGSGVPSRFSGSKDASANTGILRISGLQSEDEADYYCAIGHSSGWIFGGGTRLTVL | EC50: 0.033
